# measurement-target: α-glucosidase (Saccharomyces cerevisiae)
# Sequence (P53341 whole entry): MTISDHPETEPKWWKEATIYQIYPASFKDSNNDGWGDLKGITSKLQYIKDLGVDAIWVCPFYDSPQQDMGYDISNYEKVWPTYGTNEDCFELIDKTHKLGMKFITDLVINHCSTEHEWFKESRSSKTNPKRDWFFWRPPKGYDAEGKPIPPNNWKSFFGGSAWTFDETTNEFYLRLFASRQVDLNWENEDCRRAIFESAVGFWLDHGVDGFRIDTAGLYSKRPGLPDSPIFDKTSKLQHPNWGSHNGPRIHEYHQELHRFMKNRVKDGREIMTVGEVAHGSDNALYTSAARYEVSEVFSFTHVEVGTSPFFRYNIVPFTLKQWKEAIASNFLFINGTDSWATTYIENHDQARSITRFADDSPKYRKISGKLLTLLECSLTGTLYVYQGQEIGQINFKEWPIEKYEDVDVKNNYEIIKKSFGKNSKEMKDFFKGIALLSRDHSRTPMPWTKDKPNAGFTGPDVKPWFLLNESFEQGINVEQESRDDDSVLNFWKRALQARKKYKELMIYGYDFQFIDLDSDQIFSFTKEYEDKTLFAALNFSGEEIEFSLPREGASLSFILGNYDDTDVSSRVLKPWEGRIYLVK
# assay-protocol: α-Glucosidase inhibition assay (pNPG substrate)
# Assay type: biochemical
# assay-context: at a concentration of 20 μM; read-out: α-Glucosidase Inhibitory Rate
readout-label: inhibition at 20 µM (%)

[I] COc1cc(/C=C/C(=O)OCC(O)CO)ccc1O (stereo not shown)
[II] O=C(/C=C/c1ccc(O)cc1)OCC(O)COC(=O)/C=C/c1ccc(O)c(O)c1 (stereo not shown)
Ask | Could you tell me which of I and II has the lower inhibition at 20 µM reading? Answer with the label corresponding to your selection.
Reply | I

###

# assay-protocol: DPPH free radical scavenging assay
# assay-context: compounds; 30 min, room temperature
readout-label: IC50

Worked examples follow.
[[record]]
molecule = "O=C(O)/C=C/c1ccc(O)cc1"
reported_value = "> 80 µM"

[[record]]
molecule = "O=C(/C=C/c1ccc(O)c(O)c1)OCC(O)COC(=O)/C=C/c1ccc(O)c(O)c1"
reported_value = "8.82 µM"

[[record]]
molecule = "O=C1O[C@H]([C@@H](O)CO)C(O)=C1O [Ascorbic acid, reference compound]"
reported_value = "19.8 µM"

[[record]]
molecule = "COc1cc(O)cc(O)c1C(C)=O [Compound 1, 4,6-dihydroxy-2-methoxyacetophenone]"
reported_value = "> 80 µM"

[[record]]
molecule = "O=c1cc(-c2ccc(O)c(O)c2)oc2cc(O[C@@H]3O[C@H](CO)[C@@H](O)[C@H](O)[C@H]3O)cc(O)c12 [Compound 12, luteolin-7-O-β-D-glucopyranoside]"
reported_value = "7.28 µM"

[[record]]
molecule = "COc1cc(OC2OC(CO)C(O)C(O)C2O)cc(O)c1C(C)=O (centres unmarked)"
reported_value = "> 80 µM"


Ask | Returns the measured IC50 for the input molecule. Input: COc1cc(-c2cc(=O)c3c(O)cc(O)cc3o2)cc(OC)c1O
Reply | > 80 µM

Ask | Another: CC(=O)c1c(O)cc(O)cc1OC1OC(CO)C(O)C(O)C1O (centres unmarked)
Reply | > 80 µM
